Would you kindly list Initial rates for each of these molecules?
- subject_of_test: UniProtKB P29475
- Sequence (P29475 whole entry): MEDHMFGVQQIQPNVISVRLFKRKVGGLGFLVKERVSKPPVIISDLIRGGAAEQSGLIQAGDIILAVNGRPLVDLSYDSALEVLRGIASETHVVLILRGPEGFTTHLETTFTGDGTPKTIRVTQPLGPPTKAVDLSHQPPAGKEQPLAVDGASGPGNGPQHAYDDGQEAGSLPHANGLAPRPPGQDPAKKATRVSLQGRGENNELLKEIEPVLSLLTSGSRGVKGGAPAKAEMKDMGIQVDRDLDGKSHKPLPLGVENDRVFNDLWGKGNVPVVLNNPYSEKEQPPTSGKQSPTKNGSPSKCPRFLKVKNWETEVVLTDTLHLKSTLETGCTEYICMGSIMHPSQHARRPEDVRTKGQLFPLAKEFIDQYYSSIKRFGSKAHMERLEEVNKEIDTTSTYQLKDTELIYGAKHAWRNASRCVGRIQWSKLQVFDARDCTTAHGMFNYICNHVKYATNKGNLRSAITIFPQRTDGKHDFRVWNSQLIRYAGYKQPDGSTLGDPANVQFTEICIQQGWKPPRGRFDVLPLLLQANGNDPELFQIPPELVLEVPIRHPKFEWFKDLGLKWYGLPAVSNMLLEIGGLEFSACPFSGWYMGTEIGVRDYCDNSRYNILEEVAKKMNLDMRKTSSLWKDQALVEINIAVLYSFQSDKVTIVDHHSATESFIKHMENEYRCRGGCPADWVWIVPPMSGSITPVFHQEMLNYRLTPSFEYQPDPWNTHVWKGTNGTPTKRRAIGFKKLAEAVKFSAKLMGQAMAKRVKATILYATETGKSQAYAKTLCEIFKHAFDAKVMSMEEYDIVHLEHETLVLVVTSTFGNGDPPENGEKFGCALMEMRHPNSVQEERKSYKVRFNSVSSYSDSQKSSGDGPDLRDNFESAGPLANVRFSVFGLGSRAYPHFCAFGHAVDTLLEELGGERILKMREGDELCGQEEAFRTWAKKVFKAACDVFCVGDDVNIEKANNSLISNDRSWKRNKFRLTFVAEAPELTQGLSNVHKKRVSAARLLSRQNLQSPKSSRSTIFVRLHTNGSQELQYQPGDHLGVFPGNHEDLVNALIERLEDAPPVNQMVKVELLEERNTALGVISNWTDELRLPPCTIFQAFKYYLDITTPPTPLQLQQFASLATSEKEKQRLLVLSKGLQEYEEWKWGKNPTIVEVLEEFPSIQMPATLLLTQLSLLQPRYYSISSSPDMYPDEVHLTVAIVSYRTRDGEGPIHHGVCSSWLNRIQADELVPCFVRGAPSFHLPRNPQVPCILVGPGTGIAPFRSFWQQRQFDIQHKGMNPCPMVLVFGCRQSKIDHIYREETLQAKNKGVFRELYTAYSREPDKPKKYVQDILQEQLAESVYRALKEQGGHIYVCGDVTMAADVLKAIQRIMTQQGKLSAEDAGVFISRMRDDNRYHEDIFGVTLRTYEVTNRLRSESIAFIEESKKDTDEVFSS
- experiment: Formation of Nitric Oxide by Nitric Oxide synthase I(% relative to NOHA)
- Format: functional

Noted for NC(=NCCC(N)C(=O)O)NO (stereo not drawn) : its Initial rates reads < 0.5

Value of Initial rates reported for the molecule NC(=NCCCC(=O)O)NO is < 0.5

For record CCC/N=C(/N)NO the listed Initial rates is 36

* * *

Exercise: state measured k cat for each of the molecules provided.
- subject_of_test: Nitric oxide synthase, inducible (Mus musculus) (UniProt P29477)
- Sequence (P29477 whole entry): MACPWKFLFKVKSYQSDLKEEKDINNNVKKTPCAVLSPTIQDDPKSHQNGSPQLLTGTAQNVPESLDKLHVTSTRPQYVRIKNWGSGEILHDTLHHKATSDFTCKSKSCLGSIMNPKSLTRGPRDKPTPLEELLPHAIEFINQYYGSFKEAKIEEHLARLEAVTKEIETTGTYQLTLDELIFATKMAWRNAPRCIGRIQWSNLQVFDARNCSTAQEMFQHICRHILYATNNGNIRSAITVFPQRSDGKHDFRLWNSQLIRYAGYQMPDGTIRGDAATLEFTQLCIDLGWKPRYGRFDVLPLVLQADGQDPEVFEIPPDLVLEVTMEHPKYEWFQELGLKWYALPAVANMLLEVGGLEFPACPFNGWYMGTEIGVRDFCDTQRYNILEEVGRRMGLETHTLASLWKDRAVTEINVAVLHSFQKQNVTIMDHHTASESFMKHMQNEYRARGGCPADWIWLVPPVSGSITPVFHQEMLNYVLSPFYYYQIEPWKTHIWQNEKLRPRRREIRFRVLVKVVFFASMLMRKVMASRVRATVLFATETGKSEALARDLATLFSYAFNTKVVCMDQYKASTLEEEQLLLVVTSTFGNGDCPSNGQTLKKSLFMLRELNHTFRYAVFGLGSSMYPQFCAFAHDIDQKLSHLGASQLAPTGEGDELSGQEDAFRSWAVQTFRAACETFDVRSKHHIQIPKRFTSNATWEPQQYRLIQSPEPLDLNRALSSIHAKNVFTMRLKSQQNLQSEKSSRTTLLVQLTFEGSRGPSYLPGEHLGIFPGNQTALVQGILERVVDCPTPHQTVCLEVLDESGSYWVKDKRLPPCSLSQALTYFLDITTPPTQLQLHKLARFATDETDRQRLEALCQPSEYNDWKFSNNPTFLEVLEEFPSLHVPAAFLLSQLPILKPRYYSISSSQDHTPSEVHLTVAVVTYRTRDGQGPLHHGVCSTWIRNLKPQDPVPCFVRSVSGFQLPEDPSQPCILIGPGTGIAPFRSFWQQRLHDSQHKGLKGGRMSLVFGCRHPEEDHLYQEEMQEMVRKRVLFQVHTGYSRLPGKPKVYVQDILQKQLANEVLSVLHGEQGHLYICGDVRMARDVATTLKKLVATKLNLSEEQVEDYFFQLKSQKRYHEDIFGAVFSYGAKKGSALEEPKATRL
- experiment: Compound was evaluated for the kinetic constants for Nitric Oxide formation from oxidation by NOS II
- Type: functional
Respond numerically; units are s⁻¹ and should not be typed.

Kindly note the recorded k cat for N/C(=N/CCCC(N)C(=O)O)NO (stereo not given) , which is 8

Reported k cat for CCCCC/N=C(/N)NO was 4.67

Measured k cat of N/C(=N/CCCCC(N)C(=O)O)NO (stereo not given) : 6.83

Kindly note the recorded k cat for CCCCN/C(N)=N/O , which is 5.33

The recorded k cat for entry N=C(NO)Nc1ccc(Cl)cc1 equals 1.67

Data provenance is ChEMBL document CHEMBL1134763.
